Target: AGO2 L192P (Homo sapiens, UniProt Q9UKV8 1-859, L192P;S387D;S824A;S828D;S831D;S834A)
Sequence (Q9UKV8 whole entry L192P/S387D/S824A/S828D/S831D/S834A): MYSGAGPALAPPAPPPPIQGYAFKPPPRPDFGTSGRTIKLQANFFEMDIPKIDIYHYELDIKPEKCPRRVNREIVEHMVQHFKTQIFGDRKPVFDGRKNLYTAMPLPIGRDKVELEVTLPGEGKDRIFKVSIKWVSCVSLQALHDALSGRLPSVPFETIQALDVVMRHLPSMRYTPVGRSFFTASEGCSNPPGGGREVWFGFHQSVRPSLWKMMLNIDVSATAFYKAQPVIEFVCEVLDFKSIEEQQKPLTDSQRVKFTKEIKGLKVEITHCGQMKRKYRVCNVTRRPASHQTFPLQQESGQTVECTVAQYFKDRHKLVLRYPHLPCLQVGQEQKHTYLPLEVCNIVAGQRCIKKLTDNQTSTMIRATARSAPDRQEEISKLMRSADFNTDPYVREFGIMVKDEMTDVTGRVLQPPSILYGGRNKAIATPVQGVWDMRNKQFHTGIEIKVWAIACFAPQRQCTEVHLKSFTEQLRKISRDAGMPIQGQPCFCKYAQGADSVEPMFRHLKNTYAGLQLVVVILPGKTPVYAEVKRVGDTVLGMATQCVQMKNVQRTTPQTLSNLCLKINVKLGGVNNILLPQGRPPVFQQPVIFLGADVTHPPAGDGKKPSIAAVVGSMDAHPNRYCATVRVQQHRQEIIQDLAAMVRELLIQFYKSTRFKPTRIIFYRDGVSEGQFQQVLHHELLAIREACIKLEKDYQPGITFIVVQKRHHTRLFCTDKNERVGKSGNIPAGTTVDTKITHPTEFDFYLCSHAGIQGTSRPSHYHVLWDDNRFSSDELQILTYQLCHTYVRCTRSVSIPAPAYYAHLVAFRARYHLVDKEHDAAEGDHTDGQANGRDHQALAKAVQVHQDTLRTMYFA
Test: RNA Bind-n-Seq (nitrocellulose filter binding and sequencing); miR-122 guide loaded in AGO2; 60 min incubation; 30 mM Tris pH 8.0, 100 mM potassium acetate, 2 mM magnesium acetate, 0.5 mM TCEP, 0.005% NP-40, 0.01 mg/ml yeast tRNA; 3 nM AGO2-miR-122, 100 nM RNA library; 60; high values mean tight binding
Conditions: protein: recombinant; tags: His6 (N-terminal, pFastBac HTA)
outcome-measure: binding signal

binder	binding signal
GTATCCTG (ssRNA, constant regions annealed to DNA blockers; guide miR-122 5' phosphate) RNA 1: GAGUUCUACAGUCCGACGAUCCCAACGUAUCCUGCACCUGGAAUUCUCGGGUGCCAA RNA 2: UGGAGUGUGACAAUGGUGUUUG DNA 1: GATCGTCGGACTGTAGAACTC DNA 2: TTGGCACCCGAGAATTCCA	0.337 fold enrichment over input
ATACTCCA (ssRNA, constant regions annealed to DNA blockers; guide miR-122 5' phosphate) RNA 1: GAGUUCUACAGUCCGACGAUCCCAACAUACUCCACACCUGGAAUUCUCGGGUGCCAA RNA 2: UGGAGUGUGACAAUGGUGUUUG DNA 1: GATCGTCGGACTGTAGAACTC DNA 2: TTGGCACCCGAGAATTCCA	4.64 fold enrichment over input
ACATTCTA (ssRNA, constant regions annealed to DNA blockers; guide miR-122 5' phosphate) RNA 1: GAGUUCUACAGUCCGACGAUCCCAACACAUUCUACACCUGGAAUUCUCGGGUGCCAA RNA 2: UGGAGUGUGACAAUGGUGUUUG DNA 1: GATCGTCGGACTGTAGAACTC DNA 2: TTGGCACCCGAGAATTCCA	0.493 fold enrichment over input

Then this binder:
Problem: Need binding signal of ACGTTTCA (ssRNA, constant regions annealed to DNA blockers; guide miR-122 5' phosphate) RNA 1: GAGUUCUACAGUCCGACGAUCCCAACACGUUUCACACCUGGAAUUCUCGGGUGCCAA RNA 2: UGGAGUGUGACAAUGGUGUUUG DNA 1: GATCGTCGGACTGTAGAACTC DNA 2: TTGGCACCCGAGAATTCCA , thanks.
Result: 0.656 fold enrichment over input

The values you see were collected from paper PMC12529666.
